Test system: U2OS
Test: Multiplex assay against U2OS
Assay type: toxicity, cell-based
Conditions: human, 12 h, 1 µM, compound concentration 1 uM, replicate 2
Here the recorded Population Apoptotic (%) is given for each entry.
readout kind: Population Apoptotic (%)

* CCCSc1nc(N[C@@H]2C[C@H]2c2ccc(F)c(F)c2)c2nnn([C@@H]3C[C@H](OCCO)[C@@H](O)[C@H]3O)c2n1 [TICAGRELOR] | 66%
* Cc1ccc(C)c(Oc2ccncc2C(=O)N2CCN(C3CC3)c3ccccc32)c1 | 66%
* CNC(=O)Nc1ccc(-c2nc(N3CC4CCC(C3)O4)c3cnn(C4CCC5(CC4)OCCO5)c3n2)cc1 | 0%
* COC(=O)C1=C(C)NC(C)=C(C(=O)OCCCN2CCC(c3ccccc3)(c3ccccc3)CC2)[C@H]1c1cccc([N+](=O)[O-])c1 [NIGULDIPINE] | 91%
